# test method notes: Thermodynamic aqueous solubility of the compound at pH 7.4 using crystalline form of sample
# Type: physicochemical
# experimental parameters: read-out: Therm_solubility
reported property: solubility thermodynamic (µM)
Only the number, expressed in µM, is required.

Task item: Could you share which solubility thermodynamic value was measured for `CO[C@H](C(=O)Nc1nnc(N[C@@H]2CCN(c3cccnn3)C2)s1)c1ccccc1` ?
Reply: 78

* * *

# test method notes: Volume of distribution at steady state in iv or po dosed Han Wistar rat
# Type: ADME, organism-based
# experimental parameters: in vivo, read-out: Vdss
Record form. Attribute: Vd. Fill in for each entry.
Report as: number unit

Task item: Could you share which Vd value was measured for `C[C@H](C(=O)Nc1nnc(N[C@@H]2CCN(c3cccnn3)C2)s1)c1ccccc1` ?
Reply: 1.9 L/kg

Task item: Could you share which Vd value was measured for `CO[C@H](C(=O)Nc1nnc(N[C@@H]2CCN(c3nccnn3)C2)s1)c1ccccc1` ?
Reply: 0.6 L/kg

Task item: Could you share which Vd value was measured for `O=C(Cc1ccccc1)Nc1nnc(N[C@@H]2CCN(c3cccnn3)C2)s1` ?
Reply: 1.6 L/kg

Task item: Could you share which Vd value was measured for `CO[C@H](C(=O)Nc1nnc(N[C@@H]2CCN(c3cccnn3)C2)s1)c1ccccc1` ?
Reply: 2.4 L/kg

Task item: Could you share which Vd value was measured for `O=C(Cc1cccc(OC(F)(F)F)c1)Nc1ccc(CCCCc2nnc(NC(=O)Cc3ccccn3)s2)nn1` ?
Reply: 3 L/kg

* * *

# test method notes: Lipophilicity, log D of the compound at pH 7.4
# Format: physicochemical
# experimental parameters: buffer, read-out: logD
reported property: logD
I only need the number, thanks.

Task item: Could you share which logD value was measured for `Nc1nnc(N2CC[C@@H](Nc3nnc(NC(=O)Cc4ccccc4)s3)C2)s1` ?
Reply: 1.9

Task item: Could you share which logD value was measured for `O=C(Cc1ccccc1)Nc1nnc(N[C@@H]2CCN(c3nccnn3)C2)s1` ?
Reply: 2.06

Task item: Could you share which logD value was measured for `O=C(Cc1ccccc1)Nc1nnc(N[C@@H]2CCN(c3nnc(NC(=O)Cc4ccccc4)s3)C2)s1` ?
Reply: 3.8

Task item: Could you share which logD value was measured for `O=C(NCc1ccccc1)c1nnc(N[C@@H]2CCN(c3cccnn3)C2)s1` ?
Reply: 2.24

* * *

# test method notes: Oral bioavailability in Han Wistar rat
# Format: ADME, organism-based
# experimental parameters: in vivo
reported property: bioavailability (%)
Only the number, expressed in %, is required.

Task item: Could you share which bioavailability value was measured for `CO[C@H](C(=O)Nc1nnc(N[C@@H]2CCN(c3cccnn3)C2)s1)c1ccccc1` ?
Reply: 47

Task item: Could you share which bioavailability value was measured for `C[C@H](C(=O)Nc1nnc(N[C@@H]2CCN(c3cccnn3)C2)s1)c1ccccc1` ?
Reply: 0

Task item: Could you share which bioavailability value was measured for `O=C(Cc1ccccc1)Nc1nnc(N[C@@H]2CCN(c3cccnn3)C2)s1` ?
Reply: 2

Task item: Could you share which bioavailability value was measured for `CO[C@H](C(=O)Nc1nnc(N[C@@H]2CCN(c3nccnn3)C2)s1)c1ccccc1` ?
Reply: 41

Task item: Could you share which bioavailability value was measured for `O=C(Cc1cccc(OC(F)(F)F)c1)Nc1ccc(CCCCc2nnc(NC(=O)Cc3ccccn3)s2)nn1` ?
Reply: 32

* * *

# test method notes: Volume of distribution at steady state in Han Wistar rat at 1 mg/kg, po or 0.5 mg/kg, iv
# Format: ADME, organism-based
# experimental parameters: in vivo, read-out: Vdss
reported property: Vd (L/kg)
Only the number, expressed in L/kg, is required.

Task item: Could you share which Vd value was measured for `O=C(NCc1ccccc1)c1nnc(N[C@@H]2CCN(c3cccnn3)C2)s1` ?
Reply: 2.7

* * *

# test method notes: Lipophilicity, log D of the compound at pH 7.4
# Type: physicochemical
# experimental parameters: buffer, read-out: logD
Param threshold (2) applies to logD; output yes when value >= threshold, no when value < threshold.

Task item: Please check the record `O=C(Cc1ccccc1)Nc1nnc(N[C@@H]2CCN(c3cccnn3)C2)s1` and state if its logD is at or above 2.
Reply: yes

Task item: Please check the record `CO[C@H](C(=O)Nc1nnc(N[C@@H]2CCN(c3nccnn3)C2)s1)c1ccccc1` and state if its logD is at or above 2.
Reply: no

Task item: Please check the record `C[C@H](C(=O)Nc1nnc(N[C@@H]2CCN(c3cccnn3)C2)s1)c1ccccc1` and state if its logD is at or above 2.
Reply: yes

Task item: Please check the record `CN(CCN(C)c1nnc(NC(=O)Cc2ccccc2)s1)c1nnc(NC(=O)Cc2ccccc2)s1` and state if its logD is at or above 2.
Reply: yes

Task item: Please check the record `O=C(Cc1ccccc1)Nc1nnc(CCSCCc2nnc(NC(=O)Cc3ccccc3)s2)s1` and state if its logD is at or above 2.
Reply: yes

Task item: Please check the record `Nc1nnc(N[C@@H]2CCN(c3nnc(NC(=O)Cc4ccccc4)s3)C2)s1` and state if its logD is at or above 2.
Reply: no

Task item: Please check the record `CC(=O)Nc1nnc(N2CC[C@@H](Nc3nnc(NC(=O)Cc4ccccc4)s3)C2)s1` and state if its logD is at or above 2.
Reply: yes

Task item: Please check the record `O=C(NCc1ccccc1)c1nnc(N[C@@H]2CCN(c3nccnn3)C2)s1` and state if its logD is at or above 2.
Reply: yes

Task item: Please check the record `CO[C@H](C(=O)Nc1nnc(N[C@@H]2CCN(c3cccnn3)C2)s1)c1ccccc1` and state if its logD is at or above 2.
Reply: no

Task item: Please check the record `O=C(Cc1ccccc1)Nc1nnc(CCCc2nnc(NC(=O)Cc3ccccc3)s2)s1` and state if its logD is at or above 2.
Reply: yes

* * *

# test method notes: Thermodynamic aqueous solubility of the compound at pH 7.4
# Assay type: physicochemical
# experimental parameters: read-out: Therm_solubility
reported property: log10 solubility thermodynamic (log10 of the value in µM)
Heads up, the numbers here are log10 of solubility thermodynamic in µM units.

Task item: Could you share which log10 solubility thermodynamic value was measured for `Nc1nnc(N2CC[C@@H](Nc3nnc(NC(=O)Cc4ccccc4)s3)C2)s1` ?
Reply: 1.98

Task item: Could you share which log10 solubility thermodynamic value was measured for `Nc1nnc(N[C@@H]2CCN(c3ccc(NC(=O)Cc4ccccc4)nn3)C2)s1` ?
Reply: 1.30

Task item: Could you share which log10 solubility thermodynamic value was measured for `O=C(Cc1ccccc1)Nc1nnc(N[C@@H]2CCN(c3cccnn3)C2)s1` ?
Reply: 1.15

Task item: Could you share which log10 solubility thermodynamic value was measured for `O=C(Cc1ccccc1)Nc1nnc(N[C@@H]2CCN(c3nccnn3)C2)s1` ?
Reply: 1.97

Task item: Could you share which log10 solubility thermodynamic value was measured for `O=C(Cc1ccccc1)Nc1nnc(N[C@@H]2CCN(c3nnc(NC(=O)CC4CCOCC4)s3)C2)s1` ?
Reply: 1.00

Task item: Could you share which log10 solubility thermodynamic value was measured for `CN1CCC(CC(=O)Nc2nnc(N3CC[C@@H](Nc4nnc(NC(=O)Cc5ccccc5)s4)C3)s2)CC1` ?
Reply: 2.18

Task item: Could you share which log10 solubility thermodynamic value was measured for `O=C(Cc1ccccc1)Nc1nnc(N[C@@H]2CCN(c3nncs3)C2)s1` ?
Reply: 2.11

Task item: Could you share which log10 solubility thermodynamic value was measured for `Nc1nnc(N[C@@H]2CCN(c3nnc(NC(=O)Cc4ccccc4)s3)C2)s1` ?
Reply: 0.70

* * *

# test method notes: Thermodynamic aqueous solubility of the compound at pH 7.4
# Type: physicochemical
# experimental parameters: read-out: Therm_solubility
Record form. Attribute: solubility thermodynamic. Fill in for each entry.

Task item: Could you share which solubility thermodynamic value was measured for `O=C(Cc1ccccc1)Nc1nnc(CCCCc2nnc(NC(=O)Cc3ccccc3)s2)s1` ?
Reply: < 0.4 µM

Task item: Could you share which solubility thermodynamic value was measured for `CC(=O)Nc1nnc(N2CC[C@@H](Nc3nnc(NC(=O)Cc4ccccc4)s3)C2)s1` ?
Reply: 3 µM

Task item: Could you share which solubility thermodynamic value was measured for `O=C(Cc1ccccc1)Nc1nnc(NC[C@H]2CCN(c3nnc(NC(=O)Cc4ccccc4)s3)C2)s1` ?
Reply: < 0.8 µM

Task item: Could you share which solubility thermodynamic value was measured for CC(=O)N1CCCCC1CC(=O)Nc1nnc(N2CC[C@@H](Nc3nnc(NC(=O)Cc4ccccc4)s3)C2)s1 (stereo not given in full) ?
Reply: 20 µM

Task item: Could you share which solubility thermodynamic value was measured for `O=C(NCc1ccccc1)c1nnc(N[C@@H]2CCN(c3cccnn3)C2)s1` ?
Reply: > 559 µM

* * *

# test method notes: Drug level in SCID mouse plasma xenografted with human NCI-H1703 cells at 100 mg/kg, po administered once daily via gavage for 21 days measured 4 hrs post-last dose
# Format: ADME, organism-based
reported property: concentration at 4 h

Task item: Could you share which concentration at 4 h value was measured for `CO[C@H](C(=O)Nc1nnc(N[C@@H]2CCN(c3cccnn3)C2)s1)c1ccccc1` ?
Reply: 3.57 µM
